Reported cytotoxicity at 10 µM values are given for each entry in this list.
Assay: Toxicity liver stage against HepG2, at 10uM
Format: cell-based
Parameters: test concentration 10 uM, cell line HepG2-A16-CD81EGFP
Conditions: human, HepG2-A16-CD81EGFP cells; read-out: INHIBITION
Readout kind: cytotoxicity at 10 µM (%)

                                    compound  reported
 0  Cc1ccccc1C(=O)NC1CCN(Cc2ncc(C(C)(C)C)o2)CC1     -17.5
 1  Cc1ccc(NC(C)C(=O)NCc2cccs2)cc1Cl (stereo unspecified)     -2.27
 2  CN(Cc1cccs1)C1CCC[C@@H]2CN(C(=O)c3cccn3C)C[C@H]12 (stereo partly specified)      22.6
 3    Cc1nc(CN(C)Cc2cc3c(cc2OC(F)F)OCO3)oc1C      2.22
 4  COc1ccc(C(O)CNC(=O)NCCc2csc(C)n2)cc1 (stereo unspecified)     -6.16
 5               Cc1ccnc(NC(=O)c2ccc(C)o2)c1     -4.33
 6     c1cnc(N2CCC3(CCN(CC4CCOCC4)CC3)C2)nc1      1.29
 7  COc1ccccc1OC1CN(C(=O)Cc2c(C)nc3ccccn23)C1     -2.27
 8  CC1c2ncc(COCC3CC3)n2CCN1C(=O)c1ccnn1C (stereo unspecified)      4.68
 9  N#Cc1cn(C2CC2)c(=O)n(Cc2noc(-c3cccs3)n2)c1=O        13
10       CCc1cccc(N2CCC(NC(=O)c3ccco3)CC2)c1     -4.38

* * *

Assay: Toxicity liver stage against HepG2, at 10uM
Assay type: cell-based
Parameters: test concentration 10 uM, cell line HepG2-A16-CD81EGFP
Conditions: human, HepG2-A16-CD81EGFP cells; read-out: INHIBITION
Readout kind: cytotoxicity at 10 µM (%)

                                    compound  reported
 0  O=C(NC1CCc2nccn2C1)c1ccc(OCC2CC2)nc1 (configuration not stated)      4.36
 1  O=C([C@@H]1CCCO1)N1CCn2c(Cn3cccn3)cnc2C1     -70.1
 2             CCCS(=O)(=O)NC(=O)c1ccc(Br)o1     -6.11
 3  O=C(c1cnc(-c2ccccn2)s1)N1CCCC1Cn1cccn1 (configuration not stated)        -5
 4      Cc1nc(-c2ccccc2F)sc1C(=O)N1CCN(C)CC1        21
 5        Cc1nc(NC(C)C)nc2c1CN(Cc1nccn1C)CC2      8.13
 6               CC(C)c1nnc(NCCS(C)(=O)=O)s1        -1
 7  O=C(C1CCCC1)N1CCN(Cc2ccncc2)[C@@H]2CS(=O)(=O)C[C@@H]21     -1.79
 8           c1ccc(-c2nc(CNCCn3cccn3)cs2)nc1     -21.1
 9  Cc1cc(CN2CCN(C(=O)NC(C)Cn3ccnc3)CC2)on1 (configuration not stated)     -7.42
10  CC(C)(C)c1nnc(CN2CCCC2c2noc(C3CC3)n2)o1 (configuration not stated)     -2.75
11              Cc1ccc2c(c1)c(C)cc(=O)n2CCCN      1.14
